System: IL-2 secretion by human effector memory T cells (TEM)
TEST_DETAILS: Effector memory T cells IL-2 release assay
Format: cell-based
RECORDED_CONDITIONS: T-cell; human CD4+ TEM cells, CD3/CD28 bead stimulation, 24 h; binned A to G; read-out: PKC-theta IL2 pIC50 (binned) (converted)
READOUT_KIND: IC50

Look up IC50 of CO[C@@]1(C)C(=O)Nc2nccc(-c3nn(CC4(F)CCNCC4)c4cc(F)ccc34)c21 (single isomer, unassigned) [Example 79] and report it. 31.6 to 100 nM

Let me know recorded IC50 for CC1(C)C(=O)Nc2nccc(-c3cn(C4(CC#N)CCC4)c4ccccc34)c21 [Example 21] , thanks. > 1000 nM

Note IC50 for the compound shown: CC1(C)C(=O)Nc2nccc(-c3nn(C4(CC#N)CNC4)c4ccccc34)c21 [Example 46] 100 to 316 nM

Return value of IC50 for input CC[C@]1(C)C(=O)Nc2nccc(-c3nn([C@H]4CCNC[C@H]4F)c4ccc(F)cc34)c21 (single isomer, unassigned) [Example 100] , no commentary. 31.6 to 100 nM

###

SYSTEM: Recombinant human PKC-theta (His-tagged 362-706) (Homo sapiens (Human), UniProt Q04759)
Sequence (Q04759 362-706): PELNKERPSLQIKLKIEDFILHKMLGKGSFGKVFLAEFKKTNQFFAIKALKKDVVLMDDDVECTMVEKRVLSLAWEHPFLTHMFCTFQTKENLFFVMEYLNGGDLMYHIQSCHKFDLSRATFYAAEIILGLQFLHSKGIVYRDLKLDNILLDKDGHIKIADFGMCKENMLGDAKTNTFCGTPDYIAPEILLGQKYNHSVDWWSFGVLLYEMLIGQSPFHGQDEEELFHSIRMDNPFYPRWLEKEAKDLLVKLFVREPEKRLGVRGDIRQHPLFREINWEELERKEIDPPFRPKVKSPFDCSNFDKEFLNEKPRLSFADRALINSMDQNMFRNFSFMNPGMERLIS
TEST_DETAILS: PKC-theta inhibition assay (HTRF KinEASE kit)
Format: biochemical
RECORDED_CONDITIONS: ATP 6.5 μM
Where a name gives a salt, the structure may show the parent alone.
READOUT_KIND: PKC-theta HTRF pIC50

>  <MOLECULE>
CC1(O)C(=O)Nc2nccc(-c3cn([C@H]4CCNC4)c4ccccc34)c21 (stereo partly shown)

>  <PKC-theta HTRF pIC50>
7.9

$$$$
>  <MOLECULE>
CC1(O)C(=O)Nc2nccc(-c3nn([C@@H]4CCNC[C@@H]4F)c4ccccc34)c21 (stereo partly shown)

>  <PKC-theta HTRF pIC50>
8.8

$$$$
>  <MOLECULE>
CC1(C)C(=O)Nc2nccc(-c3nn([C@H]4CCNC[C@@H]4F)c4ccccc34)c21 (racemic)

>  <PKC-theta HTRF pIC50>
8.3

$$$$
>  <MOLECULE>
CC1(C)C(=O)Nc2nccc(-c3cn(C4CCNC4)c4ccccc34)c21 (stereo not shown)

>  <PKC-theta HTRF pIC50>
7.4

$$$$
>  <MOLECULE>
CC1(C)C(=O)Nc2nccc(-c3nn(CC4(F)CCNC4)c4ccccc34)c21 (stereo not shown)

>  <PKC-theta HTRF pIC50>
8.7

$$$$
>  <MOLECULE>
CCC1(C)C(=O)Nc2nccc(-c3nn([C@H]4CCNC4)c4ccccc34)c21 (stereo partly shown)

>  <PKC-theta HTRF pIC50>
8.3

$$$$
>  <MOLECULE>
CNC1(C)C(=O)Nc2nccc(-c3nn(C4(CC#N)CCC4)c4ccccc34)c21 (stereo not shown)

>  <PKC-theta HTRF pIC50>
9.5

$$$$
>  <MOLECULE>
CC1(C)C(=O)Nc2nccc(-c3ccn(C4CCNCC4)c3)c21

>  <PKC-theta HTRF pIC50>
7.4

$$$$
>  <MOLECULE>
CC1(C)C(=O)Nc2nccc(-c3nn(C4CCNCC4)c4c(F)cccc34)c21

>  <PKC-theta HTRF pIC50>
8.1

$$$$
>  <MOLECULE>
CC1(C)C(=O)Nc2nccc(-c3nn(C[C@]4(C)COCCN4)c4ccccc34)c21

>  <PKC-theta HTRF pIC50>
7.7

$$$$
>  <MOLECULE>
COC1(C)C(=O)Nc2nccc(-c3nn([C@@H]4CCNC[C@@H]4F)c4ccccc34)c21 (stereo partly shown)

>  <PKC-theta HTRF pIC50>
8.7

$$$$
>  <MOLECULE>
CCC1(C)C(=O)Nc2nccc(-c3nn([C@@H]4CCNC[C@@H]4F)c4ccccc34)c21 (stereo partly shown)

>  <PKC-theta HTRF pIC50>
8.4

$$$$
>  <MOLECULE>
O=c1[nH]c2nccc(-c3ccn(C4CCNCC4)c3)c2[nH]1 [Example 3, Dihydrochloride]

>  <PKC-theta HTRF pIC50>
6.7

$$$$
>  <MOLECULE>
CC1(C)C(=O)Nc2nccc(-c3nn([C@@H]4CCCNC4)c4ccccc34)c21

>  <PKC-theta HTRF pIC50>
8.4

$$$$
>  <MOLECULE>
O=C1Nc2nccc(-c3nn(C4(CO)CCNC4)c4cc(F)ccc34)c2C12CCCC2 (stereo not shown) [Example 55, dihydrochloride]

>  <PKC-theta HTRF pIC50>
8.2

$$$$
>  <MOLECULE>
CCC1(O)C(=O)Nc2nccc(-c3nn([C@@H]4CCNC[C@@H]4F)c4ccccc34)c21 (stereo partly shown)

>  <PKC-theta HTRF pIC50>
8.7

$$$$
>  <MOLECULE>
CC1(C)C(=O)Nc2nccc(-c3nn(C[C@H]4COCCN4)c4ccccc34)c21

>  <PKC-theta HTRF pIC50>
7.5

$$$$
>  <MOLECULE>
CN1CCOCC1(C)Cn1nc(-c2ccnc3c2C(C)(C)C(=O)N3)c2ccccc21 (stereo not shown)

>  <PKC-theta HTRF pIC50>
7.5

$$$$
>  <MOLECULE>
CC1(C)C(=O)Nc2nccc(-c3nn(C4(CO)CCNC4)c4ccccc34)c21 (stereo not shown)

>  <PKC-theta HTRF pIC50>
9.3

$$$$
>  <MOLECULE>
CC1(O)C(=O)Nc2nccc(-c3ccn(C4CCNCC4)n3)c21 (stereo not shown)

>  <PKC-theta HTRF pIC50>
7.4

$$$$
>  <MOLECULE>
CC1(C)C(=O)Nc2nccc(-c3ccn([C@H]4CC[C@H](N)CC4)n3)c21

>  <PKC-theta HTRF pIC50>
8.5

$$$$
>  <MOLECULE>
CC1C(=O)Nc2nccc(-c3ccn(C4CCNCC4)c3)c21 (stereo not shown)

>  <PKC-theta HTRF pIC50>
7.1

$$$$
>  <MOLECULE>
CC1(O)C(=O)Nc2nccc(-c3cn(C4CCNCC4)c4ccccc34)c21 (stereo not shown)

>  <PKC-theta HTRF pIC50>
8.1

$$$$
>  <MOLECULE>
CC1(Cn2nc(-c3ccnc4c3C(C)(C)C(=O)N4)c3ccccc32)COCCN1 (stereo not shown)

>  <PKC-theta HTRF pIC50>
8.6

$$$$
>  <MOLECULE>
CC1(C)C(=O)Nc2nccc(-c3nn(C[C@]4(C)COCCN4)c4cc(F)ccc34)c21

>  <PKC-theta HTRF pIC50>
7.6

$$$$
>  <MOLECULE>
CC1(C)C(=O)Nc2nccc(-c3cn(C4CCNCC4)c4ccccc34)c21 [Example 7, Dihydrochloride]

>  <PKC-theta HTRF pIC50>
7.4

$$$$
>  <MOLECULE>
CC1(C)C(=O)Nc2nccc(-c3nn(CC4(F)CCNCC4)c4ccccc34)c21

>  <PKC-theta HTRF pIC50>
8.9

$$$$
>  <MOLECULE>
CC1(C)C(=O)Nc2nccc(-c3nn([C@H]4CCNC4)c4cc(F)ccc34)c21

>  <PKC-theta HTRF pIC50>
8.1

$$$$
>  <MOLECULE>
CC1(O)C(=O)Nc2nccc(-c3cn(C4(CC#N)CCC4)c4ccccc34)c21 (stereo not shown)

>  <PKC-theta HTRF pIC50>
8.4

$$$$
>  <MOLECULE>
CC1(O)C(=O)Nc2nccc(-c3cn([C@@H]4CCNC4)c4ccccc34)c21 (stereo partly shown)

>  <PKC-theta HTRF pIC50>
8.0

$$$$
>  <MOLECULE>
O=c1[nH]c2nccc(-c3cnn(C4CCNCC4)c3)c2[nH]1

>  <PKC-theta HTRF pIC50>
6.1

$$$$
>  <MOLECULE>
CC1(C)C(=O)Nc2nccc(-c3nn([C@H]4CCNC4)c4ccccc34)c21 [Example 16, Dihydrochloride]

>  <PKC-theta HTRF pIC50>
8.3

$$$$
>  <MOLECULE>
CC1(O)C(=O)Nc2nccc(-c3ccn(C4CCNCC4)c3)c21 (stereo not shown)

>  <PKC-theta HTRF pIC50>
7.2

$$$$
>  <MOLECULE>
CC1(C)C(=O)Nc2nccc(-c3nn([C@@H]4CCNC4)c4ccccc34)c21

>  <PKC-theta HTRF pIC50>
8.6

$$$$
